Assay: Displacement of [3H]gabapentin from alpha2-delta calcium channel in pig brain
Design: species or system Sus scrofa
pIC50: −log10 of the molar value.
Known pIC50 of a selection of compounds
QUANTITY KIND: pIC50

{"COMPOUND": "CC(C)CC(CN)c1nnn[nH]1 (stereo unspecified)", "QUANTITY KIND": "pIC50", "COMPARISON SIGN": "=", "REPORTED RESULT": 6.77}
{"COMPOUND": "NCC1(Cc2nnn[nH]2)CCCCCC1", "QUANTITY KIND": "pIC50", "COMPARISON SIGN": "=", "REPORTED RESULT": 7.00}
{"COMPOUND": "NCC1(Cc2nnn[nH]2)CCCCC1", "QUANTITY KIND": "pIC50", "COMPARISON SIGN": "=", "REPORTED RESULT": 7.00}
{"COMPOUND": "Cn1nnnc1CC1(CN)CCCCC1", "QUANTITY KIND": "pIC50", "COMPARISON SIGN": "<", "REPORTED RESULT": 5.00}
{"COMPOUND": "NCC1(Cc2n[nH]c(=O)o2)CCCCC1", "QUANTITY KIND": "pIC50", "COMPARISON SIGN": "<", "REPORTED RESULT": 5.00}
{"COMPOUND": "NCC1(CC(=O)O)CCCCC1 [GABAPENTIN]", "QUANTITY KIND": "pIC50", "COMPARISON SIGN": "=", "REPORTED RESULT": 7.06}

----------
Assay: Dissociation constant, pKa of the compound
Assay type: physicochemical
The compounds listed here are annotated with their pKa.

{"COMPOUND": "NCC1(Cc2noc(=O)[nH]2)CCCCC1", "pKa": 5.24}
{"COMPOUND": "NCC1(Cc2n[nH]c(=O)o2)CCCCC1", "pKa": 7.18}
{"COMPOUND": "CC(C)CC(CN)c1nnn[nH]1 (centres undefined)", "pKa": 3.74}
{"COMPOUND": "NCC1(CC(=O)O)CCCCC1", "pKa": 4.1}

Provenance of the data: ChEMBL document CHEMBL1141456
